- System: KM12 colon
- method: NCI-60 one-dose screen, 48 h (100 = growth as untreated, 0 = no growth, -100 = all killed)
- protocol conditions: 10 µM unless noted
Compounds without any hit were thinned out: in the full panel of roughly 83,000, 20% have a hit.
reported metric: growth (%)
Give bare numbers, in %.

Enquiry: Fill in growth for record `COc1ccccc1-n1cc(C#N)c(N)c1C(=O)c1ccc(Br)cc1`
Return: 39.3

Field: growth. Fill in for each record below.
1. COc1ccc2[nH]cc(/C=N/Nc3nc4ccccc4s3)c2c1
2. COc1cc(/C=C2\C(=O)Nc3ccccc32)ccc1OCc1ccc(Cl)cc1

Return:
13.6
99.6

// for each compound in input: emit growth
1. N#Cc1ccccc1Cn1c2nc(=N)c3ccccc3c-2nc2ccccc21
2. COc1cc2oc(-c3cccc(C(=O)N[C@@H](CC(C)C)C(=O)OC(C)(C)C)c3)cc(=O)c2c(OC)c1OC
3. Nc1nc(Nc2ccccc2SSc2ccccc2Nc2nc(N)nc(-c3cccc(Br)c3)n2)nc(-c2cccc(Br)c2)n1
4. O=c1c2ccccc2nc(COc2ccccc2)n1NS(=O)(=O)c1ccc(Cl)cc1

Return:
60.7
59.8
23.6
55.2

Return reported growth values for all items listed beneath this line.
1. CN1CCN(c2nc(-c3csc(-c4ccccc4)n3)cc3ccccc23)CC1
2. c1ccc(C(c2nc3ncncc3[nH]2)N2CSc3nc4ncncc4n3C2)cc1 (stereo not given)
3. CCNC(=O)N1CCc2cc(OC)c(OCCc3ccc(OC)c(N)c3)cc2C1c1cc(C)c(C)cc1C (stereo not given)

Return:
1. 18.7
2. 51.7
3. 33.8

====

- Test system: MDA-MB-231 breast
- method: NCI-60 one-dose screen, 48 h (100 = growth as untreated, 0 = no growth, -100 = all killed)
- protocol conditions: 10 µM unless noted
About 83,000 compounds went through this panel and 20% of them were active in at least one assay; those are over-represented in the sample as a whole.
reported metric: growth (%)
One number for each entry, in %.

Enquiry: Tell us which growth value is on record for `Oc1[nH]c2ccccc2c1Nn1c(N=N/C=c2/ccc3c(c2)C=NN=3)n[nH]c1=S`
Return: 75.6

Give growth for all compounds that follow.
1. O=C(/C=C/c1ccc(F)cc1)c1ccc(O)cc1
2. CNCc1cccc2c1OCCCCCCC(C)(O)CC(C)(C)S(=O)(=O)c1ccc(cc1)-c1cnc(N)c(n1)C(=O)N2 (stereo not given)
3. CC1(COc2ccc3ncc(C#Cc4cncc(C(=O)Nc5cccc(C(F)(F)F)c5)c4)n3n2)COC1

Return:
[100, -6.41, 44.5]

Enquiry: Supply growth value. Item: CCOC(=O)C(=O)CC(=O)N1C(=S)NC(=O)C1CC(C)C (stereo not given)
Return: 101

====

Consider the following compounds; for each one, report its growth.
- Tested on: CAKI-1 renal
- method: NCI-60 one-dose screen, 48 h (100 = growth as untreated, 0 = no growth, -100 = all killed)
- protocol conditions: 10 µM unless noted
Compounds without any hit were thinned out: in the full panel of roughly 83,000, 20% have a hit. Calls of active or inactive are those of the source. Rule for the calls: active = growth percent below 10; inactive = the rest.

Enquiry: Identify measured growth associated with `FC(F)(F)c1cc(Nc2cccc(Oc3ccc(NC4=NCCN4)nc3)c2)ccc1Cl`
Return: 16.2% (inactive)

Enquiry: Provide only the value of recorded growth for Cc1ccc2c(c1)C13C(=C2Br)CCCN1C(=O)c1ccccc13 (stereo not drawn)
Return: 75.8% (inactive)

Enquiry: For the compound `C#CCOc1ccc(/C=N\Nc2nc(-c3ccc(C)cc3)cs2)cc1OC` , give its measured growth value.
Return: 115% (inactive)

Enquiry: Report measured growth; entry is `COc1ccc(OC)c(-c2nc(SCC(=O)c3ccc(Br)cc3)nc(Nc3ccc(S(N)(=O)=O)cc3)c2C#N)c1`
Return: 34.4% (inactive)

Enquiry: Supply recorded growth for `CNC(=O)c1cc(Oc2ccc3nc(NC(=O)c4ccc(N5CCOCC5)c(C(F)(F)F)c4)sc3c2)ccn1` here.
Return: 87.2% (inactive)

Quick one: give me growth for each item below, same order please.
1. O=S(=O)(Nc1ccc2c(c1)OCO2)c1ccc(-c2cnc(C3CC3)o2)cc1
2. O=C(CCn1cc[n+](CC(=O)c2ccc(-c3ccccc3)cc2)c1)Nc1cccc2cccnc12
3. Cc1cccc2c3c(sc12)C(c1ccc(Cl)cc1)c1c(nc(CC(=O)Nc2ccccc2)[nH]c1=O)O3 (stereo not drawn)
4. Cc1nn(-c2ccccc2)c2ncnc(N/N=C/c3ccccc3O)c12
5. CC1(C)CC[C@]2(CN)CC[C@]3(C)C(=CC[C@@H]4[C@@]5(C)CCCNC(C)(C)[C@@H]5CC[C@]43C)[C@H]2C1
6. O=C(CN1CCN(c2cc(=O)n(-c3ccccc3)c3ccccc23)CC1)Nc1cccc(C(F)(F)F)c1
7. O=C(Nc1cccc(Cl)c1)Nc1nc2ccc([N+](=O)[O-])cc2o1
8. COc1cc(-c2nc(SCCC(C)C)nc(NNC(=O)c3ccncc3)c2C#N)cc(OC)c1OC

Return:
["40.8% (inactive)", "104% (inactive)", "41.1% (inactive)", "3.12% (active)", "93.2% (inactive)", "56.9% (inactive)", "15.8% (inactive)", "37.8% (inactive)"]

Batch request: growth for each of the following compounds.
1. COc1cc(OC)c(/C=C/S(=O)(=O)Cc2ccc(OC)c(NC(=O)CCC(=O)NO)c2)c(OC)c1
2. CCNC(=O)N1CCc2cc(OC)c(OCCc3ccc(OC)cc3)cc2C1c1ccc(OC)cc1C (stereo not drawn)
3. CC(=O)C1=C(C)NC(NN)=NC1c1cccc(Cl)c1 (stereo not drawn)

Return:
1: 25.3% (inactive); 2: 26.9% (inactive); 3: 91% (inactive)

====

- Tested on: UACC-62 melanoma
- method: NCI-60 one-dose screen, 48 h
- protocol conditions: 10 µM unless noted
- Method: Growth inhibition of the UACC-62 human tumor cell line is measured as a screen for anti-cancer activity. Cells are grown in 96 well plates and exposed to the test compound for 48 hours. Compounds are tested at a single concentration, which is 10^-5 M for most compounds. The reported endpoint is percent growth (GI% or GIPRCNT), where numbers from 0 - 100% represent growth inhibition, and numbers from -100% - 0 represent cell death. For example, a value of 40 represents 60% growth inhibition. […]
Compounds without any hit were thinned out: in the full panel of roughly 83,000, 20% have a hit. Activity calls are given as the source filed them. How the source made its calls: active means growth percent below 10; inactive means the rest.
The categories you may choose from are active, inactive

# count of solved cases: 5
Enquiry: So what was the verdict on `Nc1ncc(-c2ccc(NS(=O)(=O)c3ccc(Cl)c(Cl)c3)cc2)[nH]1` in this test?
Return: inactive

Enquiry: Give the logged outcome of this assay for the following compound: COc1cc2c(cc1OC)C(Sc1ccc(F)cc1)c1c(nc(N)c(C#N)c1N)O2 (stereo unspecified)
Return: active

Enquiry: So what was the verdict on `Cc1cc(-c2ccc(Cl)cc2)n(Cc2nnc(SCC(=O)Nc3ccc(S(N)(=O)=O)cc3)n2C2CCCCC2)n1` in this test?
Return: inactive

Enquiry: # fetch the recorded call for `COc1cc(OC)c(S(N)(=O)=O)cc1C(C)=O` here
Return: inactive

Enquiry: // param item: `Cc1ccc(C(=O)NN2C(=O)/C(=C/C=C/c3ccco3)SC2=S)cc1` ; yields the recorded call
Return: inactive

Continuing:
Enquiry: Assay result, entry `CN1c2ccccc2Sc2cc(C=C(C#N)C#N)ccc21` — outcome?
Return: inactive

Enquiry: # lookup: test call for `NC(N)=Nc1ccc(Oc2cccc(NC(N)=Nc3ccc(Br)c(C(F)(F)F)c3)c2)cc1`
Return: inactive

====

Please respond with reported growth for every item in the list.
- Test system: MDA-MB-231 breast
- method: NCI-60 one-dose screen, 48 h (100 = growth as untreated, 0 = no growth, -100 = all killed)
- protocol conditions: 10 µM unless noted
The panel holds about 83,000 compounds, 20% with a hit somewhere; the sample as a whole holds those more often. The source made the active and inactive calls. The calls were made as follows: active = growth percent below 10; inactive = the rest.

Enquiry: Provide only the value of recorded growth for `Nn1c(N/N=C/c2nc3ccccc3s2)n[nH]c1=S`
Return: 88.2% (inactive)

Enquiry: Answer with the recorded growth of `N#C/C(=C\c1ccc(-c2ccc(Cl)cc2Cl)o1)c1ccc(F)cc1` only.
Return: 83.4% (inactive)

Enquiry: Answer with the recorded growth for the compound listed here: `CCOC(=O)c1c(Nc2ccccc2)nn2c(-c3ccc(OC)cc3)ccnc12`
Return: 79.4% (inactive)

Enquiry: Please give the documented growth of COc1ccc(C2CC(c3ccc(Nc4nc(NCCO)nc(N5CCOCC5)n4)cc3)=Nc3c(N)nc(N)nc3N2)cc1 (stereo not drawn)
Return: 90.6% (inactive)

Enquiry: Using the record for `Cc1nn(-c2ccccc2)c2ncnc(N/N=C/c3ccccc3O)c12` , state its measured growth.
Return: 29.7% (inactive)

Enquiry: Output growth of O=C(NNc1nc2cc(F)c(F)cc2n2c(CN3CC4CNCC4C3)ccc12)c1cnccn1 (stereo not drawn)
Return: 39.6% (inactive)

Batch request: growth for each of the following compounds.
1. NC(N)=Nc1ccc(Oc2cccc(Nc3ccc(Cl)c(C(F)(F)F)c3)c2)cc1
2. CCOC(=O)c1c(Nc2ccccc2)nn2c(-c3cccs3)ccnc12
3. Cc1nn(-c2ccccc2)c2ncnc(N/N=C/c3cccc(O)c3)c12
4. O=S(=O)(NCCNc1nccc(-n2cnc3ccccc32)n1)c1ccc(Cl)cc1
5. COc1cccc2c1CN(C(=O)c1ccc(O)c(C(=O)N3Cc4ccc(OCCC[P+](c5ccccc5)(c5ccccc5)c5ccccc5)cc4C3)c1)C2
6. O=C(NNc1nc2cc(F)cc(F)c2n2cccc12)c1cnccn1
7. O=C1[C@H]2Cc3c([nH]c4ccccc34)[C@@H](c3ccc(Cl)cc3)N2C(=O)CN1C1CCN(Cc2ccccc2)CC1
8. O=C1[C@H]2Cc3c([nH]c4ccccc34)[C@@H](c3c(Cl)cccc3Cl)N2C(=O)CN1C1CCN(CC2CCCCC2)CC1

Return:
1. 6.88% (active)
2. 81.3% (inactive)
3. 70.8% (inactive)
4. 90.6% (inactive)
5. 86.9% (inactive)
6. 33.4% (inactive)
7. 55.2% (inactive)
8. 75% (inactive)
